Measured % inhibition of binding, listed per entry.
- ASSAYED_SYSTEM: T1, mucin domain-deleted Sudan GP (GPdMuc) (Sudan virus (SUDV), UniProt Q7T9D9 33-632)
- T1 construct: also called Sudan GPdMuc; GP(S)dMuc
- MEASUREMENT_DESCRIPTION: BLI competition on Sudan GPdMuc (lower table); competitor 316L

BINDER: antibody 382S (antibody, V domains shown) VH: QVQLVQSGAEVKKPGSSVKVSCKASGGTFSNYGISWVRQAPGQGLEWMGRNIPIIGIANYAQKFQDRVTITADKSTSTVFMELRSLRYEDTAVYYCARDPLAARRGNWFDPWGQGTLVTVSS VL: DIQMTQSPSTLSASVGDRVTITCRASQSVSSWLAWYQQKPGKAPKLLIYDASTLQSGVPSRFSGSGSGTEFTLTISSLQPDDFATYYCQQYNSYSYTFGQGTKLEIK
% inhibition of binding (%): 10.7
//
BINDER: antibody 365S (antibody, V domains shown) VH: EVQLVESGGGLVQPGGSLRLSCAASGLTFSAYEMNWVRQAPGKGLEWVSHITTSGSAIYYADSVKGRFTISRDNAKNSLHLQMNRLRADDTAVYFCARDSTIVQCSGTSCHVSTYSYMDVWGKGTTVTVSS VL: EIVLTQSPATLSLSPGERATLSCRASQSVTTYLAWYQHKPGQAPRLLIYDASKRATGIPARFSGSGSGTDFTLTISSLEPEDFAVYHCQQRSSWPPITFGQGTRLEIK
% inhibition of binding (%): 5.16
